# Tested on: OVCAR-4 ovarian
# run-description: NCI-60 one-dose screen, 48 h
# assay-conditions: 10 µM unless noted
About 83,000 compounds went through this panel and 20% of them were active in at least one assay; those are over-represented in the sample as a whole. The source made the active and inactive calls. How the source made its calls: active means growth percent below 10; inactive means the rest.
Thanks in advance; please answer with one of these: 1.0 for active, 0.0 for inactive

Use the examples below as a reference point.
- compound: "O=S(=O)(O)c1cccc2cccnc12"
  class: 0.0
- compound: "O=C(O)c1cccc(-n2ncc(Cl)c(Cl)c2=O)c1"
  class: 0.0
- compound: "COc1cc(OC)c(NC(=O)C(Sc2nc(C)cc(C)c2C#N)c2ccccc2)cc1Cl (centres undefined)"
  class: 0.0

Asked: Recorded call for CN(C)CCOC(=O)Nc1ccc(Cc2ccc(NC(=O)OCCN(C)C)cc2)cc1 ?
Given back: 0.0

Asked: Recorded call for CC(C)=CCC[C@@H](C)[C@H]1CC[C@@]2(C)C3=C(CC[C@]12C)[C@@]1(C)CC[C@H](O)C(C)(C)[C@@H]1CC3 ?
Given back: 0.0

Asked: Recorded call for CC(C)c1ccccc1NC(=O)N1CCC(C(C)C)CC1 ?
Given back: 0.0

Asked: Recorded call for CC(C)NC(=O)OCc1c(COC(=O)NC(C)C)c(-c2ccc(Cl)cc2)n2c1CCC2 ?
Given back: 0.0

Asked: Recorded call for CC(CO)(CO)C(=O)O ?
Given back: 0.0
